Test system: CMT-7364 cells
Assay: Cell Counting Kit-8 (CCK-8) cell viability
Type: cell-based, canine
Settings: Canis lupus familiaris, 48 h, CCK-8
Experimental: CMT-7364, CIPp, and MDCK cells were plated in a 96-well plate with 2,000 cells per well and maintained in 5% CO2 at 37°C for 24 h until the cells adhered to the bottom. […] At each time point, the OD value was read by a microplate reader at 450 nm wavelength, and the cell viability with each drug concentration at different time points was calculated: cell relative viability=[(OD 450celastrol-OD 450blank) / (OD 450control-OD 450blank)] × 100%.
Measured Metric: IC50 (nM)
Please state the figure in nM; there is no need to write the unit.

INPUT: Query: IC50; subject: "CC1=C(O)C(=O)C=C2C1=CC=C1[C@@]2(C)CC[C@@]2(C)[C@@H]3C[C@](C)(C(=O)O)CC[C@]3(C)CC[C@]12C"
OUTPUT: 1010
